Experiment: Cmax in C57BL/6 mouse at 10 mg/kg, po
Assay type: ADME, organism-based
Parameters: dose 10 mg/kg, route oral
Conditions: in vivo
Readout: Cmax

# Cmax (compound: `CC(C)[C@H](NS(=O)(=O)c1ccc2c(c1)oc1ccc(N3CCOC3=O)cc12)C(=O)O` ) is 456 ng/mL

====

Measured half-life accompanies every entry in the list below.
Test: in vitro
Conditions: rat, liver microsomes

Study these solved cases before continuing.
CCOC(=O)Nc1ccc2oc3cc(S(=O)(=O)N[C@H](C(=O)O)C(C)C)ccc3c2c1 : > 30 min
CC(C)[C@H](NS(=O)(=O)c1ccc2c(c1)oc1cc(N)ccc12)C(=O)O : > 30 min
COC(=O)Nc1ccc2c(c1)sc1ccc(S(=O)(=O)N[C@H](C(=O)O)C(C)C)cc12 : > 30 min
C#CCCOC(=O)Nc1ccc2c(c1)sc1cc(S(=O)(=O)N[C@H](C(=O)O)C(C)C)ccc12 : > 30 min
CC(C)[C@H](NS(=O)(=O)c1ccc2c(c1)oc1ccc(N3CCOC3=O)cc12)C(=O)O : > 30 min

Notebook: `CC(C)[C@H](NS(=O)(=O)c1ccc2c(c1)sc1cc(NC(=O)NCCc3cccs3)ccc12)C(=O)O` , half-life read as > 30 min

Measured half-life of `CCOC(=O)Nc1ccc2c(c1)sc1cc(S(=O)(=O)N[C@@H](C(=O)O)C(C)C)ccc12` : > 30 min

Lab note: measured half-life of `CC(C)[C@H](NS(=O)(=O)c1ccc2c(c1)oc1cc(N3CCOC3=O)ccc12)C(=O)O` was > 30 min

Lab book: half-life of `CC(C)COC(=O)Nc1ccc2c(c1)sc1cc(S(=O)(=O)N[C@H](C(=O)O)C(C)C)ccc12` noted as > 30 min

====

Target: 72 kDa type IV collagenase (Homo sapiens)
Sequence (P08253 whole entry): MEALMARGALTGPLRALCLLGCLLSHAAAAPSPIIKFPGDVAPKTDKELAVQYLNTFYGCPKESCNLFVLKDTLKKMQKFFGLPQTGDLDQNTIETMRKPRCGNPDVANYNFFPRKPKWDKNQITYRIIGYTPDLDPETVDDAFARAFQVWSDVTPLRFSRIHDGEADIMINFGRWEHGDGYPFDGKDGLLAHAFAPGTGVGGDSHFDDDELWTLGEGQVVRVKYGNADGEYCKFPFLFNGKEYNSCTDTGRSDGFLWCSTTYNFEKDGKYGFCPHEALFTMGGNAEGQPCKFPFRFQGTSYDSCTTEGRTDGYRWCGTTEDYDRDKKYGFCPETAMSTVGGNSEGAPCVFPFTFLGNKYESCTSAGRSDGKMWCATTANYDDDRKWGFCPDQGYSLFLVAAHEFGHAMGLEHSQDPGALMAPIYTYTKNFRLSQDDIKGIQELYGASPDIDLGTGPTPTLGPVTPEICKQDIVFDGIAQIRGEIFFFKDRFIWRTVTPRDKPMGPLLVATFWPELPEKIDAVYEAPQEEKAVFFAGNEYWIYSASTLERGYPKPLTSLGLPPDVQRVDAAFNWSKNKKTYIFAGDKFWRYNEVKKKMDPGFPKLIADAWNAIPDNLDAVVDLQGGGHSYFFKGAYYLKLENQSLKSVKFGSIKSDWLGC
Readout: pIC50
Please note pIC50 is a logarithmic value: minus log10 of concentration in mol/L. Answer with that number alone.

Kindly note: 72 kDa type IV collagenase (Homo sapiens), `CC(C)[C@H](NS(=O)(=O)c1ccc2c(c1)oc1ccc(N3CCOC3=O)cc12)C(=O)O` , pIC50 value reported: 7.18

====

Experiment: Volume of distribution at steady state in C57BL/6 mouse at 2 mg/kg, iv
Assay type: ADME, organism-based
Design: dose 2 mg/kg, route intravenous
Conditions: in vivo, read-out: Vdss
Readout: Vd (L/kg)
Write the number in L/kg without appending the unit.

get_value(item= `COC(=O)Nc1ccc2sc3cc(S(=O)(=O)N[C@@H](C(=O)O)C(C)C)ccc3c2c1` , readout=Vd) returns 3.7

Reported Vd of `CC(C)[C@H](NS(=O)(=O)c1ccc2c(c1)oc1ccc(N3CCOC3=O)cc12)C(=O)O` : 0.8

Vd measured on `COC(=O)Nc1ccc2sc3cc(S(=O)(=O)N[C@H](C(=O)O)C(C)C)ccc3c2c1` = 1.7

====

Experiment: Cmax in C57BL/6 mouse at 30 mg/kg, po
Format: ADME, organism-based
Design: dose 30 mg/kg, route oral
Settings: in vivo
Readout: Cmax (ng/mL)
Expressed in ng/mL, but write only the number.

COC(=O)Nc1ccc2sc3cc(S(=O)(=O)N[C@H](C(=O)O)C(C)C)ccc3c2c1 : 1820

For reference, reported Cmax for `COC(=O)Nc1ccc2sc3cc(S(=O)(=O)N[C@@H](C(=O)O)C(C)C)ccc3c2c1` stands at 738
